- Target System: recombinant human GSTP1 (Homo sapiens)
- Construct: made in house; host or cells: E. coli XL-1 Blue
- Sequence (P09211 whole entry): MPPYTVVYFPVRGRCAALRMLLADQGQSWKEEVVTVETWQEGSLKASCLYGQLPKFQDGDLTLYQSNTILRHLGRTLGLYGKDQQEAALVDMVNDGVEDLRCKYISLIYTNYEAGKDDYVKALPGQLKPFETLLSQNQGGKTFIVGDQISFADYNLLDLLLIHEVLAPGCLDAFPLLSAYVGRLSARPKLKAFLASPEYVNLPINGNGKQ
- Measurement Notes: GSTP1 enzyme inhibition assay (GSH-CDNB conjugation, spectrophotometric)
- Format: biochemical
- Conditions Used: as restated in the discussion

>  <Compound>
Nc1nc(SSc2nc(N)nc3c2ncn3C2CC(O)C(CO)O2)c2ncn(C3CC(O)C(CO)O3)c2n1 (stereo not shown) [6-thio-2′-dG-Dimer]

>  <IC50 / µM>
0.339

$$$$
